Test system: 5-LO (LTB4) in heparinised human blood
Assay notes: In vitro heparinised human blood challenged with A23187, LTB4 radioimmunoassay (test b)
Type: cell-based
Quantity measured: pIC50
Answers are plain numbers, as −log10 of the molar value.

Query: For the compound shown here, CCC1(c2cccc(Sc3ccc4ccccc4c3)c2)COC(C)(C)O1 (stereo not shown) , give the reported pIC50.
Result: 6.30
